These data points were gathered from PubChem BioAssay.

protocol_summary: antimalarial activity against Dd2 strain (AID 2302)
condition_set: P. falciparum Dd2 in RBCs, LDH growth readout, 72 h; at 2 µM; hits give high values
Would you mind labelling by growth inhibition? At or over 30% is Yes, under is No.

Use the examples below as a reference point.
In plain terms: is recorded growth inhibition at least 30% for COc1cc(OC)cc(C(=O)Nc2nc(-c3ccccn3)cs2)c1 ?
Yes

Item CCCC(C)NC(=O)[C@H](CC1CCCCC1)NC(=O)c1ccc(O)c(-c2cccc(C(F)(F)F)c2)c1 (some centres undefined) with growth inhibition of 30% or above?
Yes

Check if growth inhibition >= 30% (inclusive). Item: Cc1nnsc1C(=O)Nc1cccc(-c2cccc(-c3nc4ccc(F)cc4[nH]3)c2)c1
Yes

Textbook exercise: given the entry O=C(NC1CCN(Cc2ccccc2)CC1)c1cc(-c2ccncc2)nc2ccc(Cl)cc12 , state whether its growth inhibition is greater than or equal to 30%.
No

Given the entry COc1cc(C=Cc2ccc3ccccc3n2)cc(Br)c1OCC(=O)N(C)C , answer whether its growth inhibition meets or surpasses 30%.
Yes

Further cases:
Please indicate if the recorded growth inhibition for CC(C)(C)c1ccc(NC(=O)c2ccc(CN3CCCN(CC4CCCCC4)CC3)cc2)cc1 meets or exceeds 30%.
Yes

Check the entry CC(=O)Nc1cccc(C(=O)Nc2ccc(-c3ccc(-c4nc5c(C)cccc5[nH]4)s3)cc2)c1 : does growth inhibition equal or exceed 30%?
No

Quick check, growth inhibition >= 30%? C[C@H](CNc1ccnc(Nc2ccc3[nH]c(=O)[nH]c3c2)n1)c1ccccc1
No

Determine whether measured growth inhibition meets or exceeds 30% for O=C(NCc1ccc2c(c1)OCO2)c1nn(CCN2CCC(N3CCCC3)CC2)cc1-c1ccc(Cl)c(Cl)c1
No

Please indicate if the recorded growth inhibition for O=C(/C=C/c1ccc(Cl)c(Cl)c1)NCCCCCCN1CCN(C(=O)Nc2ccc(Cl)c(C(F)(F)F)c2)CC1 meets or exceeds 30%.
Yes

Reported growth inhibition reaches at least 30% for COc1ccc2nc(C)cc(NN=Cc3ccccc3)c2c1 ?
No

Identify whether the reported growth inhibition of the following compound is 30% or greater: Cc1[nH]c2ccc(-c3ccccc3)cc2c(=O)c1Br
Yes

Exam item: decide whether the reported growth inhibition for CCN(CC)CCOc1cc2c(cc1Br)-c1cc(Br)c(OCCN(CC)CC)cc1C2=NO is at least 30%.
Yes
